Reported Kd, UniProtKB Q96SW2.
Kindly answer with a numeric value in nM, unit omitted.

Consider the worked cases shown below.
INSERT INTO assay_data (smiles_input, meas_value) VALUES
  ('O=C(Nc1ccc2[nH]c(=O)[nH]c2c1)[C@@H]1CCCc2ccccc21', 14),
  ('COC(=O)c1cccc2c1CCN2C(=O)c1ccc2[nH]c(=O)[nH]c2c1', 25),
  ('O=C(Nc1cccc(-c2cnco2)c1)c1ccc2[nH]c(=O)[nH]c2c1', 11);

Could you share which Kd value was measured for `O=c1[nH]c2ccc(N3CCN(c4ccccn4)CC3)nc2[nH]1` ?
7

Check `CNC(=O)c1ccc2c(c1)nc(-c1cnc[nH]1)n2-c1ccc2[nH]c(=O)[nH]c2c1` too.
49

----------
Reported pKd, UniProt:Q96SW2.
Note on pKd: it is the negative log10 of concentration, concentration in mol/L.

INSERT INTO measurements (smiles_input, target_of_assay, meas_value) VALUES
  ('O=C(Nc1ccc2[nH]c(=O)[nH]c2c1)c1cccc2c1CCN2', 'UniProt:Q96SW2', 7.54);

Could you share which pKd value was measured for `CN(C(=O)c1ccc2[nH]c(=O)[nH]c2c1)c1ccccc1` ?
8.05

Check `O=c1[nH]c2ccc(N3CCNCC3)cc2[nH]1` too.
7.92

Check `COC(=O)c1nc2ccccc2n1-c1ccc2[nH]c(=O)[nH]c2c1` too.
8.52

Check `O=C(Nc1cccc(F)c1)Nc1ccc2[nH]c(=O)[nH]c2c1` too.
7.59

----------
target_of_assay: UniProt Q96SW2
Overview of reported pKd across a group of compounds:
Note on pKd: it is the negative log10 of concentration, concentration in mol/L.

INSERT INTO results (smiles_input, target_of_assay, meas_value) VALUES
  ('Cc1sc2c(c1C)C(c1ccc(Cl)cc1)=N[C@@H](CC(=O)NCCCCCNC(=O)c1cccc3c1CCN3C(=O)Nc1ccc3[nH]c(=O)[nH]c3c1)c1nnc(C)n1-2', 'UniProt Q96SW2', 8.15),
  ('CC(=O)Nc1ccc(NC(=O)Nc2ccc3[nH]c(=O)[nH]c3c2)cc1', 'UniProt Q96SW2', 7.85),
  ('CC(=O)NC1CCN(C(=O)c2ccc3[nH]c(=O)[nH]c3c2)CC1', 'UniProt Q96SW2', 7.70),
  ('CC(C)(C)OC(=O)Nc1ccc2c(c1)CCN2Cc1ccc2[nH]c(=O)[nH]c2c1', 'UniProt Q96SW2', 7.72);

Identify the measured pKd of `CCOC(=O)c1ccc(NS(=O)(=O)c2ccc3[nH]c(=O)[nH]c3c2)cc1` for UniProt Q96SW2.
7.00

Check `CNC(=O)c1cccc2c1CCN2C(=O)Nc1ccc2[nH]c(=O)[nH]c2c1` too.
8.00

Check `CNC(=O)c1ccc2c(c1)nc(-c1ccnc(OC)c1)n2-c1ccc2[nH]c(=O)[nH]c2c1` too.
6.97

Check `COc1ccc2c(c1)nc(C(C)C)n2-c1ccc2[nH]c(=O)[nH]c2c1` too.
7.89

----------
Reported pKd, hCereblon(M1-L442)_hDDB1(M1-H1140) (Homo sapiens (Human), UniProt Q96SW2).
Note on pKd: it is the negative log10 of concentration, concentration in mol/L.

Consider the worked cases shown below.
INSERT INTO assay_data (molecule, target_of_assay, meas_value) VALUES
  ('CNC(=O)c1ccc2c(c1)nc(-c1cccc(COC)c1)n2-c1ccc2[nH]c(=O)[nH]c2c1 [Example 57]', 'hCereblon(M1-L442)_hDDB1(M1-H1140) (Homo sapiens (Human), UniProt Q96SW2)', 8.15),
  ('Cn1c(=O)[nH]c2ccc(Nc3ccccc3N)cc21 [Example 52]', 'hCereblon(M1-L442)_hDDB1(M1-H1140) (Homo sapiens (Human), UniProt Q96SW2)', 8.22);

Could you share which pKd value was measured for Cn1cncc1-c1cc(-c2nc3cc(C(N)=O)ccc3n2-c2ccc3[nH]c(=O)[nH]c3c2)c2ccccc2n1 [Example 113] ?
6.05

Check CNC(=O)c1ccc2c(c1)nc(C(C)(C)C)n2-c1ccc2[nH]c(=O)[nH]c2c1 [Example 46] too.
8.00

----------
Reported pKd, hCereblon(M1-L442)_hDDB1(M1-H1140) (Homo sapiens (Human)).
Note on pKd: it is the negative log10 of concentration, concentration in mol/L.

Consider the worked cases shown below.
INSERT INTO results (molecule, meas_value) VALUES
  ('COC(=O)c1ccc(Nc2ccc3[nH]c(=O)[nH]c3c2)c(N)c1 [Example 9]', 7.54),
  ('O=C(Nc1ccc2[nH]c(=O)[nH]c2c1)c1ccccc1Cc1ccccc1 [Example 123]', 7.66),
  ('NS(=O)(=O)c1ccc(C(=O)Nc2ccc3[nH]c(=O)[nH]c3c2)cc1 [Example 100]', 7.54),
  ('O=c1[nH]c2ccc(N3C[C@H]4CC[C@@H](C3)N4)cc2[nH]1 [Example 59]', 8.22);

Alright, here's another molecule for you.
Could you share which pKd value was measured for CC(C)c1nccn1-c1ccc2[nH]c(=O)[nH]c2c1 [Example 32] ?
8.22

----------
target_of_assay: hCereblon(M1-L442)_hDDB1(M1-H1140) (Homo sapiens (Human), UniProt Q96SW2)
Sequence (Q96SW2 whole entry): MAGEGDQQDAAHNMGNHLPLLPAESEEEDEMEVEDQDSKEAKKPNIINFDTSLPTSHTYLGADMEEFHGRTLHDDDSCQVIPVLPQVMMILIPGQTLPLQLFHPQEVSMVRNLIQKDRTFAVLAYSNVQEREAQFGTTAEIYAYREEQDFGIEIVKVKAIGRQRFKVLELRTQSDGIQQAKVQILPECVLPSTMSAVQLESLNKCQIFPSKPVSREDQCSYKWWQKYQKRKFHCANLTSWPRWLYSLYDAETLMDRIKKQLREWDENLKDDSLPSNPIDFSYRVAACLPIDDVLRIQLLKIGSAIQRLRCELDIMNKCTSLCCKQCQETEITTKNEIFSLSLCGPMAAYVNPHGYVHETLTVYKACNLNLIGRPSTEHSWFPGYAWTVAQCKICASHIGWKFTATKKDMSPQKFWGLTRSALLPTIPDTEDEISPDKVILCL
Sequence (Q16531 whole entry partner): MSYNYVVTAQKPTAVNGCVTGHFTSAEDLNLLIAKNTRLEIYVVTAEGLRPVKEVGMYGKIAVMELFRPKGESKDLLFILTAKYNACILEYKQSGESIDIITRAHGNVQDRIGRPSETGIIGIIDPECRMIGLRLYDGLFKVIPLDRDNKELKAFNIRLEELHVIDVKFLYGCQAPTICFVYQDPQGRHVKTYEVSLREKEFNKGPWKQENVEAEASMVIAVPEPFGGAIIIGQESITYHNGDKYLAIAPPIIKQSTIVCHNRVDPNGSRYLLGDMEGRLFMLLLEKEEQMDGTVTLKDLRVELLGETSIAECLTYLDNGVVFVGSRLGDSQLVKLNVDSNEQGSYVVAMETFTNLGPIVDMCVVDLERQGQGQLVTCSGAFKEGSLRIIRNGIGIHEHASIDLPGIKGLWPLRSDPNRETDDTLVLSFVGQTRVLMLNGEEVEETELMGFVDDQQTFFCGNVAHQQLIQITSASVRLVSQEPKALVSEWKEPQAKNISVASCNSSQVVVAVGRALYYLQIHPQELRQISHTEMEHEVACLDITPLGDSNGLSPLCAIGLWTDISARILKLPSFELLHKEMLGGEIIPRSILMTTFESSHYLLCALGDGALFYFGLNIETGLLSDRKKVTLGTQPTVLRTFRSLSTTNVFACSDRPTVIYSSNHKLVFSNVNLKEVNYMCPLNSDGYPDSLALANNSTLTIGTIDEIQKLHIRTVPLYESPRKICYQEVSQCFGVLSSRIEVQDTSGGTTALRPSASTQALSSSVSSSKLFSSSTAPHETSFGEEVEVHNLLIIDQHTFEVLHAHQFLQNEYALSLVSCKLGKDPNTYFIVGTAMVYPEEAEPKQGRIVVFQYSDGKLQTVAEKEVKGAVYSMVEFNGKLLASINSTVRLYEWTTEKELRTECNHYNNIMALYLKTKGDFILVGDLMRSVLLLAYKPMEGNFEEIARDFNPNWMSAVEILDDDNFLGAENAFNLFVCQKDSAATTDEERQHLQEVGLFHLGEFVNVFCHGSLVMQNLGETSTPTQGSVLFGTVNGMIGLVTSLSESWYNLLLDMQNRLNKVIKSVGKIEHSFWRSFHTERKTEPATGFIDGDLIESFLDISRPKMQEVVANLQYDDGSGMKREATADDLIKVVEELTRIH
Define the label as label 1 when Kd is strictly less than 7 nM and as label 0 in all remaining cases.

Look over these answered cases.
INSERT INTO measurements (molecule, qualitative_label) VALUES
  ('CNC(=O)c1ccc2c(c1)nc(-c1cc[nH]c1)n2-c1ccc2[nH]c(=O)[nH]c2c1 [Example 66]', 'label 0'),
  ('CNC(=O)CCc1nc2ccccc2n1-c1ccc2[nH]c(=O)[nH]c2c1 [Example 81]', 'label 1');

Bench note: check whether CCc1nc2cc(C(=O)NCCOCCOCCNC(=O)C[C@@H]3N=C(c4ccc(Cl)cc4)c4c(sc(C)c4C)-n4c(C)nnc43)ccc2n1-c1ccc2[nH]c(=O)[nH]c2c1 [Example B] shows Kd below 7 nM
label 0

Check CNC(=O)c1ccc2c(c1)nc(C1CCC(OC)CC1)n2-c1ccc2[nH]c(=O)[nH]c2c1 (stereo not drawn) [Example 131] too.
label 0

Check O=C(c1ccc2[nH]c(=O)[nH]c2c1)N1CCc2ccccc21 [Example 24] too.
label 1

Check CC(=O)Nc1ccc(C(=O)Nc2ccc3[nH]c(=O)[nH]c3c2)cc1 [Example 74] too.
label 1

Check CC(=O)N1[C@@H]2CC[C@H]1CN(c1ccc3[nH]c(=O)[nH]c3c1)C2 [Example 63] too.
label 0

Check O=c1[nH]c2cnc(-c3ccc(F)cc3)cc2[nH]1 [Example 36] too.
label 0

----------
Reported pKd, hCereblon(M1-L442)_hDDB1(M1-H1140) (Homo sapiens (Human)).
Note on pKd: it is the negative log10 of concentration, concentration in mol/L.

Consider the worked cases shown below.
INSERT INTO assay_data (smiles_input, meas_value) VALUES
  ('O=C(c1nc2ccccc2n1-c1ccc2[nH]c(=O)[nH]c2c1)N1CCCCC1', 7.46),
  ('Cc1sc2c(c1C)C(c1ccc(Cl)cc1)=N[C@@H](CC(=O)NCCOCCOCCNC(=O)c1ccc3c(c1)nc(-c1ccnc4ccccc14)n3-c1ccc3[nH]c(=O)[nH]c3c1)c1nnc(C)n1-2', 7.72);

Alright, here's another molecule for you.
Could you share which pKd value was measured for `Cn1c(=O)[nH]c2cc(Nc3ccccc3N)ccc21` ?
7.31

----------
Overview of reported Kd across a group of compounds:
target_of_assay: hCereblon(M1-L442)_hDDB1(M1-H1140) (Homo sapiens (Human), UniProt Q96SW2)
Kindly answer with a numeric value in nM, unit omitted.

Consider the worked cases shown below.
INSERT INTO results (smiles_input, endpoint_unit, meas_value) VALUES
  ('O=C(Nc1ccccc1)c1ccc2[nH]c(=O)[nH]c2c1', 'nM', 42),
  ('CNC(=O)c1cccc2c1nc(C(C)C)n2-c1ccc2[nH]c(=O)[nH]c2c1', 'nM', 47),
  ('O=C(Nc1ccc2[nH]c(=O)[nH]c2c1)N1CCc2ccccc21', 'nM', 4),
  ('CC(=O)N1CCN(C(=O)c2ccc3[nH]c(=O)[nH]c3c2)CC1', 'nM', 103),
  ('CNC(=O)c1ccc(Oc2ccc3[nH]c(=O)[nH]c3c2)cc1', 'nM', 22);

Could you share which Kd value was measured for `O=c1[nH]c2ccc(S(=O)(=O)N3CCc4ccccc43)cc2[nH]1` ?
48
